Data origin: patent US8871753B2

Quick reference for IC50 among some compounds
# tgt: human JAK3 (a.a. 781-1124) (Homo sapiens)
# Construct: JAK3 (a.a. 781-1124); His tag (N); made in house; host or cells: insect cells (baculovirus)
# procedureSummary: In vitro JAK kinase assay (HTRF, phosphorylation of a biotinylated peptide), JAK3
# Format: biochemical
# conditionContext: method AA1 (3 μM ATP) or AA2 (1000 μM ATP), not stated per value
Structures can show the parent of a compound that is named as a salt.

>  <compound>
O=C(CC1CCN(S(=O)(=O)c2ccccc2)CC1)Nc1ccc2cc1CCc1cccc(c1)Nc1ncc(Cl)c(n1)N2 [Example A205, trifluoroacetate]

>  <IC50>
> 200 nM

$$$$
>  <compound>
O=C(CC1CCN(c2ncccn2)CC1)Nc1ccc2cc1CCc1cncc(c1)Nc1ncc(Cl)c(n1)N2 [Example A172, tris(trifluoroacetate)]

>  <IC50>
> 1000 nM

$$$$
>  <compound>
O=C(CC1CCN(S(=O)(=O)c2cccnc2)CC1)Nc1ccc2cc1CCc1cncc(c1)Nc1ncc(Cl)c(n1)N2 [Example A202, tris(trifluoroacetate)]

>  <IC50>
> 200 nM

$$$$
>  <compound>
COc1ccc(S(=O)(=O)N2CCC(CC(=O)Nc3ccc4cc3CCc3cccc(c3)Nc3ncc(Cl)c(n3)N4)CC2)cc1 [Example A207, trifluoroacetate]

>  <IC50>
> 200 nM

$$$$
>  <compound>
N#Cc1ccccc1NC(=O)N1CCC(CC(=O)Nc2ccc3cc2CCc2cncc(c2)Nc2ncc(Cl)c(n2)N3)CC1 [Example A141, bis(trifluoroacetate)]

>  <IC50>
> 100 nM

$$$$

Cc1oncc1S(=O)(=O)N1CCC(CC(=O)Nc2ccc3cc2CCc2cncc(c2)Nc2ncc(Cl)c(n2)N3)CC1 [Example A200, bis(trifluoroacetate)] tested on human JAK3 (a.a. 781-1124) (Homo sapiens) gave IC50: > 200 nM

O=C(CC1CCN(C(=O)Nc2cccc(F)c2)CC1)Nc1ccc2cc1CCc1cncc(c1)Nc1ncc(Cl)c(n1)N2 [Example A147, bis(trifluoroacetate)] tested on human JAK3 (a.a. 781-1124) (Homo sapiens) gave IC50: > 100 nM

N#Cc1cccc(NC(=O)N2CCC(CC(=O)Nc3ccc4cc3CCc3cncc(c3)Nc3ncc(Cl)c(n3)N4)CC2)c1 [Example A142, bis(trifluoroacetate)] tested on human JAK3 (a.a. 781-1124) (Homo sapiens) gave IC50: > 100 nM

Cc1noc(C)c1C(=O)N1CCC(C(=O)Nc2ccc3cc2CCc2cccc(c2)Nc2ncc(Cl)c(n2)N3)CC1 [Example A34, trifluoroacetate] tested on human JAK3 (a.a. 781-1124) (Homo sapiens) gave IC50: > 1000 nM

COc1cccc(S(=O)(=O)N2CCC(CC(=O)Nc3ccc4cc3CCc3cncc(c3)Nc3ncc(Cl)c(n3)N4)CC2)c1 [Example A196, bis(trifluoroacetate)] tested on human JAK3 (a.a. 781-1124) (Homo sapiens) gave IC50: > 200 nM

N#Cc1cccnc1N1CCC(CC(=O)Nc2ccc3cc2CCc2cncc(c2)Nc2ncc(Cl)c(n2)N3)CC1 [Example A177, tris(trifluoroacetate)] tested on human JAK3 (a.a. 781-1124) (Homo sapiens) gave IC50: > 200 nM

O=C(CC1CCN(C(=O)Nc2cccnc2)CC1)Nc1ccc2cc1CCc1cncc(c1)Nc1ncc(Cl)c(n1)N2 [Example A144, bis(trifluoroacetate)] tested on human JAK3 (a.a. 781-1124) (Homo sapiens) gave IC50: > 100 nM

Cc1ncsc1C(=O)N1CCC(CC(=O)Nc2ccc3cc2CCc2cncc(c2)Nc2ncc(Cl)c(n2)N3)CC1 [Example A216, bis(trifluoroacetate)] tested on human JAK3 (a.a. 781-1124) (Homo sapiens) gave IC50: > 200 nM

Cc1ccc(C#N)c(N2CCC(CC(=O)Nc3ccc4cc3CCc3cncc(c3)Nc3ncc(Cl)c(n3)N4)CC2)n1 [Example A238, tris(trifluoroacetate)] tested on human JAK3 (a.a. 781-1124) (Homo sapiens) gave IC50: > 400 nM

----------
# tgt: human JAK2 (a.a. 828-1132) (Homo sapiens, UniProt O60674)
# Construct: JAK2 (a.a. 828-1132); His tag (N); made in house; host or cells: insect cells (baculovirus)
# Sequence (O60674 828-1132): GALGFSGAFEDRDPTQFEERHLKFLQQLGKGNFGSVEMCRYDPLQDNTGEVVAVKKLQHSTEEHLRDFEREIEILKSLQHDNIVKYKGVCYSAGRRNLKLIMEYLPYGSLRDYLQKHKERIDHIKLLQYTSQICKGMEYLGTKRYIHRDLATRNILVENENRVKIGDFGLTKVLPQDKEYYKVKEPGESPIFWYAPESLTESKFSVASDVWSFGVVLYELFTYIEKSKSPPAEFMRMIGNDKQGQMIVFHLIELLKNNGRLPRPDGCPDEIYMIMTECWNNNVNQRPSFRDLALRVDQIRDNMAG
# procedureSummary: In vitro JAK kinase assay (HTRF, phosphorylation of a biotinylated peptide), JAK2
# Type: biochemical
# conditionContext: method AA1 (30 μM ATP) or AA2 (1000 μM ATP), not stated per value
pIC50: −log10 of the molar value. Where a name gives a salt, the structure may show the parent alone.
valueType: pIC50

Some solved cases for reference:
>  <compound>
N#CCC(=O)N1CCC(CC(=O)Nc2ccc3cc2CCc2cncc(c2)Nc2ncc(Cl)c(n2)N3)CC1 [Example A245, bis(trifluoroacetate)]

>  <pIC50>
6.93

$$$$
>  <compound>
Cn1ccc(C(=O)N2CCC(CC(=O)Nc3ccc4cc3CCc3cncc(c3)Nc3ncc(Cl)c(n3)N4)CC2)n1 [Example A130, bis(trifluoroacetate)]

>  <pIC50>
8.04

$$$$

1. NS(=O)(=O)N1CC[C@@H](C(=O)Nc2ccc3cc2CCc2cccc(c2)Nc2ncc(Cl)c(n2)N3)C1 [Example A74, trifluoroacetate]
2. O=C(CC1CCN(c2ccccn2)CC1)Nc1ccc2cc1CCc1cncc(c1)Nc1ncc(Cl)c(n1)N2 [Example A170, tris(trifluoroacetate)]
# returns the entry with the larger pIC50; inputs 1 and 2 Write down the label of the entry you select.
1
(1: 8.52, 2: 6.78)

P. Oc1cc2cc(c1)Nc1nc(ncc1Cl)Nc1cccc(c1)CC2 [Example A22, trifluoroacetate]
Q. Cc1cc(C(=O)N2CCN(CC(=O)Nc3ccc4cc3CCc3cncc(c3)Nc3ncc(Cl)c(n3)N4)CC2)no1 [Example A119, tris(trifluoroacetate)]
# returns the entry with the larger pIC50; inputs P and Q Write down the label of the entry you select.
P

----------
# tgt: human JAK3 (a.a. 781-1124) (Homo sapiens)
# Construct: JAK3 (a.a. 781-1124); His tag (N); made in house; host or cells: insect cells (baculovirus)
# procedureSummary: In vitro JAK kinase assay (HTRF, phosphorylation of a biotinylated peptide), JAK3
# Assay type: biochemical
# conditionContext: Table B1
Where a name gives a salt, the structure may show the parent alone.
valueType: IC50 (nM)

>  <compound>
O=C(Nc1ccc2cc1CCc1cccc(c1)Nc1ncc(Cl)c(n1)N2)c1cccc(F)c1 [Example B48, trifluoroacetate]

>  <valueType>
IC50

>  <unitsLabel>
nM

>  <valueReported>
2.6

$$$$
>  <compound>
Cn1ccc2c(NC(=O)Nc3ccc4cc3CCc3cccc(c3)Nc3ncc(Cl)c(n3)N4)cccc21 [Example B125, trifluoroacetate]

>  <valueType>
IC50

>  <unitsLabel>
nM

>  <valueReported>
76

$$$$
>  <compound>
CC(C)c1ccccc1NC(=O)Nc1ccc2cc1CCc1cccc(c1)Nc1ncc(Cl)c(n1)N2 [Example B104, trifluoroacetate]

>  <valueType>
IC50

>  <unitsLabel>
nM

>  <valueReported>
81

$$$$
>  <compound>
Cc1ccccc1C(=O)Nc1ccc2cc1CCc1cccc(c1)Nc1ncc(Cl)c(n1)N2 [Example B35, trifluoroacetate]

>  <valueType>
IC50

>  <unitsLabel>
nM

>  <valueReported>
1.4

$$$$
>  <compound>
CC(C)(C)NS(=O)(=O)c1cc2cc(c1)Nc1nc(ncc1Br)Nc1cccc(c1)CC2 [Example B17, trifluoroacetate]

>  <valueType>
IC50

>  <unitsLabel>
nM

>  <valueReported>
126

$$$$

a. CN(C)S(=O)(=O)NCCNC(=O)Nc1ccc2cc1CCc1cccc(c1)Nc1ncc(Cl)c(n1)N2 [Example B328, trifluoroacetate]
b. O=C(c1cc2cc(c1)Nc1nc(ncc1Cl)Nc1cccc(c1)CC2)N1CCCC(O)C1 (stereo not shown) [Example B12, trifluoroacetate]
# returns the entry with the larger IC50; inputs a and b Write down the label of the entry you select.
b

----------
# tgt: human JAK3 (a.a. 781-1124) (Homo sapiens, UniProt P52333)
# Construct: JAK3 (a.a. 781-1124); His tag (N); made in house; host or cells: insect cells (baculovirus)
# Sequence (P52333 781-1124): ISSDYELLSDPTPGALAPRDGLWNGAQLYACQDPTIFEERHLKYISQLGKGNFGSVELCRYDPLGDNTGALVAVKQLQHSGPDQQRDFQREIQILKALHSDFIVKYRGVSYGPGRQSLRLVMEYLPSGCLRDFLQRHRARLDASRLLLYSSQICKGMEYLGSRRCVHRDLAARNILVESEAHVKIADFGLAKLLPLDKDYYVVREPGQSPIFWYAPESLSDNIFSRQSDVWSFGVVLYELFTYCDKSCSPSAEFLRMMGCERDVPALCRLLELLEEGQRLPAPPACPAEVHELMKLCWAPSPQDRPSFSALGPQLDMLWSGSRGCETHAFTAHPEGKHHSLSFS
# procedureSummary: In vitro JAK kinase assay (HTRF, phosphorylation of a biotinylated peptide), JAK3
# Format: biochemical
# conditionContext: Table B1
pIC50: −log10 of the molar value. Where a name gives a salt, the structure may show the parent alone.
valueType: pIC50

>  <compound>
CC(C)C(=O)N1CC[C@H](NC(=O)Nc2ccc3cc2CCc2cccc(c2)Nc2ncc(Cl)c(n2)N3)C1 [Example B229, trifluoroacetate]

>  <valueReported>
7.12

$$$$

P. NS(=O)(=O)Nc1ccc2cc1CCc1cccc(c1)Nc1ncc(Cl)c(n1)N2 [Example B184, trifluoroacetate]
Q. CNC(=O)Nc1ccc2cc1CCc1cncc(c1)Nc1ncc(Cl)c(n1)N2 [Example B135, bis(trifluoroacetate)]
R. CC1(C)Cc2cccc(NC(=O)Nc3ccc4cc3CCc3cccc(c3)Nc3ncc(Cl)c(n3)N4)c2O1 [Example B129, trifluoroacetate]
S. Cc1ccc(C(=O)Nc2ccc3cc2CCc2cccc(c2)Nc2ncc(Cl)c(n2)N3)cc1 [Example B47, trifluoroacetate]
// sort entries: pIC50, high to low Write the labels, ordered according to the request.
P, S, Q, R
(P: 10.00, S: 8.02, Q: 7.52, R: 6.74)
